target: acetylcholine receptor; assay: SPR, AchR immobilised on CM5 chip, peptide at 10 uM
Catalogue of Binding affinity (RU) values

| Binder | Uom | Binding affinity (RU) |
| --- | --- | --- |
| KRSQTK [6mer-1-403] | RU | 153 |
| RKWFLK [6mer-1-437] | RU | 131 |
| KKQLQK [6mer-1-430] | RU | 144 |
| KIHFK [5mer-1176] | RU | 25 |
| RRWISR [6mer-1-409] | RU | 144 |
| RRGYCK [6mer-1-423] | RU | 147 |
| KRGRCK [6mer-1-449] | RU | 135 |
| KRWVCR [6mer-1-434] | RU | 137 |
| RRGQYR [6mer-1-456] | RU | 153 |
| RHWEK [5mer-1195] | RU | 19 |
